assay: inhibition of endothelial tube formation, primary screen, imaging, VEGF stimulated, CD31 staining, tube area, NPC library (AID 1117340); details: VEGF-stimulated ADSC/ECFC co-culture, at 10 µM, stronger effect = higher value

compound	tube area decrease / %
CC(C)CCCC(C)N (configuration not stated)	-9.7
COc1cc2c(c(OC)c1OC)-c1ccc(OC)c(=O)cc1[C@@H](NC(C)=O)CC2	105
O=C(O)CP(=O)(O)O	-4.7
C[C@H](NCCc1ccc(O)cc1)[C@H](O)c1ccc(O)cc1	5.1
CC(=O)N(c1onc(C)c1C)S(=O)(=O)c1ccc(N)cc1	-1
CN=C(NC#N)NCCSCc1csc(N=C(N)N)n1	14.5
O=C(NOCC1CC1)c1ccc(F)c(F)c1Nc1ccc(I)cc1Cl	104
CN(N=O)C(=O)N[C@@H]1[C@@H](O)[C@H](O)[C@@H](CO)O[C@@H]1O	10.3
C#CCN(C)CCCOc1ccc(Cl)cc1Cl	22.3
O=C(CCCN1CCC(O)(c2ccc(Cl)cc2)CC1)c1ccc(F)cc1	-3.9
CN1CC[C@H](c2c(O)cc(O)c3c(=O)cc(-c4ccccc4Cl)oc23)[C@H](O)C1	110
NC(=O)c1cc[n+](CC2=C(C(=O)[O-])N3C(=O)[C@@H](NC(=O)Cc4cccs4)[C@H]3SC2)cc1	-7.6
Cc1oc(=O)oc1CN1CCN(c2cc3c(cc2F)c(=O)c(C(=O)O)c2n3C(C)S2)CC1 (configuration not stated)	4.4
CC(C)Nc1cccnc1N1CCN(C(=O)c2cc3cc(NS(C)(=O)=O)ccc3[nH]2)CC1	-1.5
c1cnc2cc3c(cc2n1)C1CNCC3C1	23.1
CC(C)OC(=O)OCOP(=O)(CO[C@H](C)Cn1cnc2c(N)ncnc21)OCOC(=O)OC(C)C	65.2
C[N+](C)(C)CCCCCCCCCC[N+](C)(C)C	-2.9
CCC(=O)c1ccc2c(c1)N(CCCN(C)C)c1ccccc1S2	48.9
O=C(OC1C[C@H]2CC[C@@H](C1)[N+]21CCCC1)C(O)(c1ccccc1)c1ccccc1 (some centres not stated)	10.7
O=C(OOC(=O)c1ccccc1)c1ccccc1	-15.4
CC1(C)[C@H](C(=O)O)N2C(=O)C[C@H]2S1(=O)=O	-3.3
CC1(CN2CCC(n3c(=O)[nH]c4ccccc43)CC2)OCc2ccccc2-n2cccc21 (configuration not stated)	7.2

###

experiment: sensitizers of A549 cells to miR-34 induction, primary screen, imaging, A549 dox-inducible miR-34, nuclei and caspase counts (AID 1347080); conditions: A549 miR-34 inducible, Hoechst nuclei count, 48 h; measured here: relative caspase fold change +Dox/-Dox
parameterMeasured: fold change

compound	parameterMeasured	endpointResult
CCOC(=O)c1ccc(O)cc1	fold change	1.39
CC(=O)OCC(=O)[C@@]1(OC(C)=O)[C@@H](C)C[C@H]2[C@@H]3C[C@H](F)C4=CC(=O)C=C[C@]4(C)[C@@]3(F)[C@@H](O)C[C@@]21C	fold change	1.36
C[C@@H](CN1CC(=O)NC(=O)C1)N1CC(=O)NC(=O)C1	fold change	1.07
COc1ccc2[nH]c(S(=O)Cc3ncc(C)c(OC)c3C)nc2n1 (stereo not given)	fold change	1.32
NCCNC(=O)c1ccc(Cl)cn1	fold change	1.55

###

assay: survival rescue of mitochondrial mutant cells in low glucose, primary screen, MELAS cybrids, Rieske KO mouse fibroblasts, CellTiter-Glo (AID 1508586); conditions: Rieske KO mouse fibroblast survival, CellTiter-Glo 72 h;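 note: z relative to plate mean and SD of compound and empty wells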

molecule	z-score
C1COC(NC(C2CC2)C2CC2)=N1	0.9
CCOCC(O)COc1ccc(NC(=O)CC[S+](C)C)cc1 (configuration not stated)	0.62
CN1C(=O)CC(c2ccccc2)C1=O (configuration not stated)	0.0941
CN1CCN(C2=Nc3ccccc3Sc3ccc(Cl)cc32)CC1	0.707
Cc1ccc2c(c1)c1c3n2CCNC3CCC1 (configuration not stated)	-0.847
COc1nc(N)nc2c1ncn2[C@@H]1O[C@H](CO)[C@@H](O)[C@@H]1O	0.487
CCN1C(=O)NC(c2ccccc2)C1=O (configuration not stated)	0.79
CCCCCCCCOc1ccccc1C(=O)Nc1ccc(C(=O)OCC[N+](C)(CC)CC)cc1	-0.0436
Nc1nc(/C(=C/CC(=O)O)C(=O)N[C@@H]2C(=O)N3C(C(=O)O)=CCS[C@H]23)cs1	-1.4
CN=C(NC#N)Nc1ccc(C2=NNC(=O)CC2C)cc1 (configuration not stated)	0.162
COc1ccc2ccc(=O)oc2c1CC=C(C)C	-1.1
O=c1ccc2ccc(O)c(O)c2o1	0.783

###

system: Hepatitis C virus NS3 helicase; test: HCV NS3 helicase inhibitors, primary screen, biochemical, fluorescence polarization, LOPAC1280 library (AID 687035); settings: Purified HCV NS3 helicase, Cy5-dT15 ssDNA binding fluorescence polarization; stronger effect = higher value; concentration not given here
As shown below, each of these compounds has a reported inhibition value.
parameterMeasured: inhibition (%)

compound	parameterMeasured	unitsLabel	endpointResult
C=C[C@H]1CN2CCC1C[C@@H]2[C@@H](O)c1ccnc2ccc(OC)cc12 (stereo partly specified)	inhibition	%	-1
O=C(O)c1cccnc1C(=O)O	inhibition	%	-2
Nc1cc(=O)[nH]c(N)n1	inhibition	%	1
CC1=C(/C=C/C(C)=C/C=C/C(C)=C\C(=O)O)C(C)(C)CCC1	inhibition	%	1
O=C(O)CN(CCN(CC(=O)O)CC(=O)O)CCN(CC(=O)O)CC(=O)O	inhibition	%	-2
C#CCN(C)CCCOc1ccc(Cl)cc1Cl	inhibition	%	-6

###

assay: ovarian cancer cell viability with rucaparib, profiling panel, oncology-focused library, rucaparib conditional (AID 1508598); conditions: patient-derived ovarian cancer cells, CellTiter-Glo viability, 144 h; at 0.00488 µM; OCI-P5x cells; without rucaparib
Calls of active or inactive are those of the source.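 Rule for the calls: active = normalized viability below 100% at a tested concentration; inactive = the rest.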
Outcomes: 1 (yes) = active, 0 (no) = inactive

compound	class
CN(C)c1nc(N(C)C)nc(N(C)C)n1	1 (yes)
CCc1ccc(CCOc2ccc(CC3SC(=O)NC3=O)cc2)nc1 (stereo not drawn)	0 (no)
CNC(=O)c1cc(Oc2ccc(NC(=O)Nc3ccc(Cl)c(C(F)(F)F)c3)cc2)ccn1	1 (yes)
COc1c(C)c2c(c(O)c1C/C=C(\C)CCC(=O)O)C(=O)OC2	0 (no)
Cc1ccc(Nc2nccc(N(C)c3ccc4c(C)n(C)nc4c3)n2)cc1S(N)(=O)=O	1 (yes)
O=C(CCCCCCC(=O)Nc1ccccc1)NO	1 (yes)
Nc1nc(Cl)nc2c1ncn2[C@@H]1O[C@H](CO)[C@@H](O)[C@@H]1F	0 (no)
Nc1ncn([C@H]2C[C@H](O)[C@@H](CO)O2)c(=O)n1	1 (yes)
CCCC(CCC)C(=O)O	0 (no)
CNC(=O)c1ccccc1Sc1ccc2c(/C=C/c3ccccn3)n[nH]c2c1	1 (yes)
FC(F)c1nc2ccccc2n1-c1nc(N2CCOCC2)nc(N2CCOCC2)n1	1 (yes)
CN(N=O)C(=O)N[C@@H]1[C@@H](O)[C@H](O)[C@@H](CO)O[C@@H]1O	0 (no)
Clc1ccc(Nc2nnc(Cc3ccncc3)c3ccccc23)cc1	0 (no)

###

assay: rescue of polyQ-huntingtin neuronal dysfunction in worms, whole organism, C. elegans mechanosensory neurons, N-terminal huntingtin (AID 1599); conditions: touch response, stronger effect = higher value
Measured potencies and affinities stand elsewhere. Bridge positions count the residues as written; N and C are the ends. Square brackets hold non-standard residues; d marks the D form. Peptide text beside a SMILES is read from it. * marks the point of attachment. Octanoyl(6-Me) = CCC(C)CCCCC(=O)*; Dab = NCC[CH](N)C(=O)O
As shown below, each of these compounds has a reported rescue above control value.

compound	rescue above control
CCC(C)CCCCC(=O)NC(CCN)C(=O)NC(C(=O)NC(CCN)C(=O)NC1CCNC(=O)C(C(C)O)NC(=O)C(CCN)NC(=O)C(CCN)NC(=O)C(CC(C)C)NC(=O)C(Cc2ccccc2)NC(=O)C(CCN)NC1=O)C(C)O (stereo not drawn) ({Octanoyl(6-Me)}-[Dab]T[Dab][Dab][Dab]FL[Dab][Dab]T; lactam 4-C; configuration not given here)	0
Cc1ccc(/C(=C\CN2CCCC2)c2ccccn2)cc1	-10.7
CC12CCC(CC1)C(C)(C)O2	2.25

###

assay: HCT116 colon cancer cell growth inhibition, primary screen, CellTiter-Glo luminescence, NPC library (AID 1117342); settings: at 20 µM (top of the series)

molecule	inhibition of viability (%)
O=C1NC(=O)[C@@]2(CCOc3ccc(F)cc32)N1	4.6
COc1ccc(-c2cc(=S)ss2)cc1	27.2
CNCCCN1c2ccccc2CCc2ccccc21	37.5
CC(C)CCCC(C)N (stereo not drawn)	-7.6
c1cc(CN2CCCCC2)cc(OCCCNc2nc3ccccc3s2)c1	53.3
O=C1CN(/N=C/c2ccc([N+](=O)[O-])o2)C(=O)N1	18.2
O=C1Cc2cc(CCN3CCN(c4nsc5ccccc45)CC3)c(Cl)cc2N1	124
O=C(O)[C@H](O)c1ccccc1	-5.47
CC(C)(C)NCC(O)COc1cccc2c1CCC(=O)N2 (stereo not drawn)	-1.83
OCC(CO)N[C@H]1C[C@](O)(CO)[C@@H](O)[C@H](O)[C@H]1O	5.5
Cc1cc(=O)oc2cc(O)ccc12	13.6
CCOc1ccc(NC(=O)CC(C)O)cc1 (stereo not drawn)	1.4
NCCNCCNCCNCCN	16
